details: in n-hexane, 298.15 K
MEASURED_ATTRIBUTE: solubility (mole fraction)
// no unit, no text: just the number

For record Brc1cnc2[nH]ccc2c1 the listed solubility (mole fraction) is 0.00024

---

conditions: in ethyl acetate, 318.15 K
MEASURED_ATTRIBUTE: solubility (mole fraction)
// no unit, no text: just the number

For record Brc1cnc2[nH]ccc2c1 the listed solubility (mole fraction) is 0.0404

---

details: in ethyl acetate, 278.15 K
MEASURED_ATTRIBUTE: solubility (mole fraction)
// no unit, no text: just the number

For record Brc1cnc2[nH]ccc2c1 the listed solubility (mole fraction) is 0.0161

---

details: in n-hexane, 293.15 K
MEASURED_ATTRIBUTE: solubility (mole fraction)
// no unit, no text: just the number

For record Brc1cnc2[nH]ccc2c1 the listed solubility (mole fraction) is 0.00021

---

details: in ethanol, 298.15 K
MEASURED_ATTRIBUTE: solubility (mole fraction)
// no unit, no text: just the number

For record Brc1cnc2[nH]ccc2c1 the listed solubility (mole fraction) is 0.0139

---

details: in methanol, 323.15 K
MEASURED_ATTRIBUTE: solubility (mole fraction)
// no unit, no text: just the number

For record Brc1cnc2[nH]ccc2c1 the listed solubility (mole fraction) is 0.0171

---

conditions: in acetonitrile, 313.15 K
MEASURED_ATTRIBUTE: solubility (mole fraction)

For record Brc1cnc2[nH]ccc2c1 the listed solubility (mole fraction) is 0.00858

---

conditions: in n-hexane, 323.15 K
MEASURED_ATTRIBUTE: solubility (mole fraction)

For record Brc1cnc2[nH]ccc2c1 the listed solubility (mole fraction) is 0.00041

---

conditions: in ethyl acetate, 298.15 K
MEASURED_ATTRIBUTE: solubility (mole fraction)
// no unit, no text: just the number

For record Brc1cnc2[nH]ccc2c1 the listed solubility (mole fraction) is 0.0258

---

conditions: in methanol, 298.15 K
MEASURED_ATTRIBUTE: solubility (mole fraction)
// no unit, no text: just the number

For record Brc1cnc2[nH]ccc2c1 the listed solubility (mole fraction) is 0.00972

---

conditions: in dichloromethane, 298.15 K
MEASURED_ATTRIBUTE: solubility (mole fraction)
// no unit, no text: just the number

For record Brc1cnc2[nH]ccc2c1 the listed solubility (mole fraction) is 0.00505

---

settings: in methanol, 303.15 K
MEASURED_ATTRIBUTE: solubility (mole fraction)
// no unit, no text: just the number

For record Brc1cnc2[nH]ccc2c1 the listed solubility (mole fraction) is 0.0111

---

settings: in acetonitrile, 298.15 K
MEASURED_ATTRIBUTE: solubility (mole fraction)
// no unit, no text: just the number

For record Brc1cnc2[nH]ccc2c1 the listed solubility (mole fraction) is 0.00519

---

settings: in acetonitrile, 323.15 K
MEASURED_ATTRIBUTE: solubility (mole fraction)
// no unit, no text: just the number

For record Brc1cnc2[nH]ccc2c1 the listed solubility (mole fraction) is 0.0116

---

conditions: in dichloromethane, 303.15 K
MEASURED_ATTRIBUTE: solubility (mole fraction)
// no unit, no text: just the number

For record Brc1cnc2[nH]ccc2c1 the listed solubility (mole fraction) is 0.00749

---

settings: in isopropanol, 278.15 K
MEASURED_ATTRIBUTE: solubility (mole fraction)
// no unit, no text: just the number

For record Brc1cnc2[nH]ccc2c1 the listed solubility (mole fraction) is 0.00779

---

conditions: in acetonitrile, 293.15 K
MEASURED_ATTRIBUTE: solubility (mole fraction)
// no unit, no text: just the number

For record Brc1cnc2[nH]ccc2c1 the listed solubility (mole fraction) is 0.00436

---

settings: in isopropanol, 323.15 K
MEASURED_ATTRIBUTE: solubility (mole fraction)
// no unit, no text: just the number

For record Brc1cnc2[nH]ccc2c1 the listed solubility (mole fraction) is 0.0275

---

settings: in ethanol, 313.15 K
MEASURED_ATTRIBUTE: solubility (mole fraction)
// no unit, no text: just the number

For record Brc1cnc2[nH]ccc2c1 the listed solubility (mole fraction) is 0.0198

---

details: in ethyl acetate, 283.15 K
MEASURED_ATTRIBUTE: solubility (mole fraction)
// no unit, no text: just the number

For record Brc1cnc2[nH]ccc2c1 the listed solubility (mole fraction) is 0.0184

---

conditions: in dichloromethane, 308.15 K
MEASURED_ATTRIBUTE: solubility (mole fraction)

For record Brc1cnc2[nH]ccc2c1 the listed solubility (mole fraction) is 0.0106

---

conditions: in n-propanol, 283.15 K
MEASURED_ATTRIBUTE: solubility (mole fraction)
// no unit, no text: just the number

For record Brc1cnc2[nH]ccc2c1 the listed solubility (mole fraction) is 0.0109

---

conditions: in n-propanol, 293.15 K
MEASURED_ATTRIBUTE: solubility (mole fraction)
// no unit, no text: just the number

For record Brc1cnc2[nH]ccc2c1 the listed solubility (mole fraction) is 0.0145

---

conditions: in methanol, 318.15 K
MEASURED_ATTRIBUTE: solubility (mole fraction)
// no unit, no text: just the number

For record Brc1cnc2[nH]ccc2c1 the listed solubility (mole fraction) is 0.0153

---

conditions: in acetonitrile, 318.15 K
MEASURED_ATTRIBUTE: solubility (mole fraction)

For record Brc1cnc2[nH]ccc2c1 the listed solubility (mole fraction) is 0.00981

---

details: in n-butanol, 288.15 K
MEASURED_ATTRIBUTE: solubility (mole fraction)
// no unit, no text: just the number

For record Brc1cnc2[nH]ccc2c1 the listed solubility (mole fraction) is 0.0202

---

conditions: in n-hexane, 308.15 K
MEASURED_ATTRIBUTE: solubility (mole fraction)
// no unit, no text: just the number

For record Brc1cnc2[nH]ccc2c1 the listed solubility (mole fraction) is 0.0003

---

details: in n-butanol, 293.15 K
MEASURED_ATTRIBUTE: solubility (mole fraction)
// no unit, no text: just the number

For record Brc1cnc2[nH]ccc2c1 the listed solubility (mole fraction) is 0.0228

---

conditions: in ethyl acetate, 308.15 K
MEASURED_ATTRIBUTE: solubility (mole fraction)
// no unit, no text: just the number

For record Brc1cnc2[nH]ccc2c1 the listed solubility (mole fraction) is 0.0321

---

conditions: in methanol, 313.15 K
MEASURED_ATTRIBUTE: solubility (mole fraction)
// no unit, no text: just the number

For record Brc1cnc2[nH]ccc2c1 the listed solubility (mole fraction) is 0.0138

---

settings: in n-propanol, 318.15 K
MEASURED_ATTRIBUTE: solubility (mole fraction)

For record Brc1cnc2[nH]ccc2c1 the listed solubility (mole fraction) is 0.0268

---

conditions: in methyl acetate, 318.15 K
MEASURED_ATTRIBUTE: solubility (mole fraction)
// no unit, no text: just the number

For record Brc1cnc2[nH]ccc2c1 the listed solubility (mole fraction) is 0.0509

---

settings: in ethanol, 278.15 K
MEASURED_ATTRIBUTE: solubility (mole fraction)
// no unit, no text: just the number

For record Brc1cnc2[nH]ccc2c1 the listed solubility (mole fraction) is 0.0078

---

conditions: in isopropanol, 283.15 K
MEASURED_ATTRIBUTE: solubility (mole fraction)
// no unit, no text: just the number

For record Brc1cnc2[nH]ccc2c1 the listed solubility (mole fraction) is 0.00915

---

settings: in ethanol, 303.15 K
MEASURED_ATTRIBUTE: solubility (mole fraction)
// no unit, no text: just the number

For record Brc1cnc2[nH]ccc2c1 the listed solubility (mole fraction) is 0.0158

---

settings: in n-butanol, 313.15 K
MEASURED_ATTRIBUTE: solubility (mole fraction)
// no unit, no text: just the number

For record Brc1cnc2[nH]ccc2c1 the listed solubility (mole fraction) is 0.0345

---

conditions: in acetonitrile, 283.15 K
MEASURED_ATTRIBUTE: solubility (mole fraction)
// no unit, no text: just the number

For record Brc1cnc2[nH]ccc2c1 the listed solubility (mole fraction) is 0.00304

---

settings: in methyl acetate, 303.15 K
MEASURED_ATTRIBUTE: solubility (mole fraction)
// no unit, no text: just the number

For record Brc1cnc2[nH]ccc2c1 the listed solubility (mole fraction) is 0.0381

---

details: in methyl acetate, 288.15 K
MEASURED_ATTRIBUTE: solubility (mole fraction)

For record Brc1cnc2[nH]ccc2c1 the listed solubility (mole fraction) is 0.0279

---

details: in isopropanol, 288.15 K
MEASURED_ATTRIBUTE: solubility (mole fraction)
// no unit, no text: just the number

For record Brc1cnc2[nH]ccc2c1 the listed solubility (mole fraction) is 0.0106

Data origin, for the record: BigSolDB 2.1
